target: DA-uptake complex (Rattus norvegicus, UniProt P23977); construct: in a striatal membrane preparation; from tissue; host or cells: striatal membranes; experiment: Test 1: inhibition of 3H-GBR 12935 binding to the DA-uptake complex in a striatal membrane preparation
Sequence (P23977 whole entry, one chain of several): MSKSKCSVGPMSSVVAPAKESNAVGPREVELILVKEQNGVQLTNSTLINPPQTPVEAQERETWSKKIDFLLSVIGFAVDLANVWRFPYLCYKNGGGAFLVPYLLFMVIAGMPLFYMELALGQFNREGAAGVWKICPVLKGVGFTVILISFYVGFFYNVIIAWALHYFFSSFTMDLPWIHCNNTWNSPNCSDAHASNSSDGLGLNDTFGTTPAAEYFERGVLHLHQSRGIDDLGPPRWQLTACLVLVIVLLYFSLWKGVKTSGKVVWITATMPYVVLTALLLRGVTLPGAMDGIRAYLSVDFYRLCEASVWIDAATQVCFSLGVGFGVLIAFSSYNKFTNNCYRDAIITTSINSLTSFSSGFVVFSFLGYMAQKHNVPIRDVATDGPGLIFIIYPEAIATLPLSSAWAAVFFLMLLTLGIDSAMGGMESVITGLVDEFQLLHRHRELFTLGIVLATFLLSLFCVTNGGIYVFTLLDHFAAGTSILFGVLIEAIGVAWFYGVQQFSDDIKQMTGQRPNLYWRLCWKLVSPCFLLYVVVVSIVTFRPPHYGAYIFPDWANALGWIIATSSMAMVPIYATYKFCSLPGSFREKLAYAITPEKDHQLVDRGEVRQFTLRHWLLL
reportedMetric: IC50 (nM)
Your answer is read as nM, so omit the unit and give the number.

compound	measurementUnits	IC50
Fc1ccc(C(OCCN2CCN(CC=Cc3ccco3)CC2)c2cccs2)cc1 (centres unmarked)	nM	4.7

// IC50 value for Fc1ccc(C(OCCN2CCN(CCCc3ccccc3)CC2)c2ccsc2)cc1 (centres unmarked) : 3.7
